system_name: BRD4(BD1) (Homo sapiens, UniProt O60885)
protocol_summary: In vitro bromodomain inhibition, BRD4(BD1) / biotinylated H4-tetraacetyl peptide AlphaLISA
reported_conditions: His-tagged BRD4 BD1 200 nM, H4 peptide 200 nM, read-out: BRD4α (IC50)
measured_attribute: IC50 (nM)

smiles_input	IC50 (nM)
Cc1cc(-c2ccc3ncc(Cc4ccccc4)n3c2)cn(C)c1=O	122
Cc1cc(-c2ccc3ncc(CNc4ccccc4)n3c2)cn(C)c1=O	318
Cc1cc(-c2ccc3ncc(COC4CCCC4)n3c2)cn(C)c1=O	153
Cc1cc(-c2ccc3ncc(Cc4ccc(Cl)cc4)n3c2)cn(C)c1=O	143

[A] Cc1cc(-c2ccc3ncc(Cc4cccc(F)c4)n3c2)cn(C)c1=O
[B] COc1ccc(Cc2cnc3ccc(-c4cc(C)c(=O)n(C)c4)cn23)cc1
[C] Cc1cc(-c2ccc3ncc(CN4CCCCC4)n3c2)cn(C)c1=O
Ascending sort, IC50. # respond with the labels, arranged in the requested order A, C, B

Data credit: patent US10501459B2
